This collection of values is drawn from PubChem BioAssay (NCI).

# test.details: NCI Yeast Anticancer Drug Screen. Data for the sgs1 mgt1 strain (AID 161);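 further: 0% = growth of cultures given vehicle only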
# assay.conditions: S. cerevisiae sgs1 mgt1 strain, at 50.0 µM
# Protocol: Growth inhibition of yeast strains with defined genetic alterations is measured as a screen for potential anti-cancer activity. Selected strains with alterations in DNA damage repair or cell cycle control were exposed to compounds and growth inhibition was measured relative to vehicle treated controls. The strain used in this assay is sgs1 mgt1
About 79,000 compounds went through this panel and 15% of them were active in at least one assay; those are over-represented in the sample as a whole. Calls of active or inactive are those of the source. No stated cut-off is given here; in the data, active means growth inhibition above about 70%; inactive means the rest.
Outcomes: TRUE for active, FALSE for inactive

• CCN(CC)CCN1C(=O)N(CCN(CC)CC)C(=O)C(CC)(CC)C1=O = FALSE
• Nc1nc(=O)[nH]nc1SCc1ccccc1 = FALSE
• Cc1cc(C)c(Br)cc1C = FALSE
• CN(C)C(=O)C1CCC(CC2CCCCC2)CC1 (stereo not given) = TRUE
• O=C1CS(=O)(=O)c2ccccc21 = FALSE

###

# test.details: NCI Yeast Anticancer Drug Screen. Data for the mec2-1 strain (AID 157)
# assay.conditions: S. cerevisiae mec2-1 strain, at 50.0 µM, stronger effect = higher value
Compounds without any hit were thinned out: in the full panel of roughly 79,000, 15% have a hit.
Each item that follows carries a reported growth inhibition.
quantity.measured: growth inhibition (%)

• CC(=O)c1cc2ccccc2o1 = 1.4
• CC1/C(=N/Nc2ccc([N+](=O)[O-])cc2)CC2C3(C)CCC2(C(C)C(=O)O)C(=O)C13 (stereo not drawn) = 33.4
• Nc1ccc2ccccc2c1[N+](=O)[O-] = 10.1
• O=C(c1nc2ccccc2[nH]1)N1CCN(c2ccccc2)CC1 = -1.55
• Cc1c(Cl)cccc1NC(=O)Oc1ccccc1Cc1ccccc1 = 43.1
• COc1ccc(C2c3cc4c(cc3OC(C)(OC)C2C)OCO4)cc1 (stereo not drawn) = -6.8
• COC(=O)NC1C(C)OC(OC2C/C=C(/C)C3C=CC4C(OC5CC(OC6CCC(OC7CC(O)C(OC8CCC(O)C(C)O8)C(C)O7)C(C)O6)C(OC(C)=O)C(C)O5)C(C)CC(C)C4C3(C)/C(O)=C3/C(=O)OC4(CC(C=O)=CC(O)C4/C=C\2C)C3=O)CC1(C)[N+](=O)[O-] (stereo not drawn) = 20.9
• NC(=O)N1CCCCN1C(N)=O = -7.95
• CC(C)CCCC(C)C1CCC2C3CCC4CC(=O)/C(=C\O)CC4(C)C3CCC12C (stereo not drawn) = 51.5
• Nc1ncnc2c(C3OC(CO)C(O)C3O)nsc12 (stereo not drawn) = -23.6
• CC(C)(C)c1ccc2c(c1)CNCCNCCNCc1cc(C(C)(C)C)ccc1OCC1(CO2)COc2ccc(C(C)(C)C)cc2CNCCNCCNCc2cc(C(C)(C)C)ccc2OC1 = 93
• O=C(O)c1nc(Cl)c(Cl)[nH]c1=O = -29.6
• COc1ccc2c(c1)CCCN2 = -23

###

# test.details: NCI Yeast Anticancer Drug Screen. Data for the sgs1 mgt1 strain (AID 161);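 further: 0% = growth of cultures given vehicle only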
# assay.conditions: S. cerevisiae sgs1 mgt1 strain, at 50.0 µM, stronger effect = higher value
Compounds without any hit were thinned out: in the full panel of roughly 79,000, 15% have a hit. Where a SMILES comes first, the peptide text is derived from it. [ ]: non-standard residue; d: D form. The star is where a group is joined. Phe(4-NO2) = N[CH](Cc1ccc([N+](=O)[O-])cc1)C(=O)O; Boc = CC(C)(C)OC(=O)*; OtBu = CC(C)(C)O*
quantity.measured: growth inhibition (%)

• N#CC(C(=O)C(=O)Nc1cccc(C(F)(F)F)c1)c1c(Cl)cccc1Cl (stereo not drawn) = 17.1
• Cc1ccc(Cl)nn1 = -2.55
• CC(=O)OCC1OC(n2cccnc2=O)C(OC(C)=O)C1OC(C)=O (stereo not drawn) = 2.25
• CCCCN=C=C(c1ccccc1)c1ccccc1 = -0.85
• O=C(O)CC(NC(=O)c1cnc2ccccc2n1)C(=O)O (stereo not drawn) = 4.3
• O=[N+]([O-])c1ccc(-c2nc3ncncc3[nH]2)cc1 = -0.75
• O=C(c1ccc(F)cc1)C1CCC1 = 16.6
• COP(=O)(CC(=O)C1OC(C)(C)OC1C(O)COCc1ccccc1)OC (stereo not drawn) = 22.9
• CN1CN(C(=O)N2CN(C)C(=O)N(C)C2)CN(C)C1=O = -23.6
• c1ccc2c(c1)SCCCSCCCS2 = -5.45
• COC(=O)CN(c1ccc(C#N)c2ccccc12)S(=O)(=O)c1ccccc1 = 3.7
• Oc1cccnc1CN1CCOCC1 = -12.6
• CCOc1ccc(N2C(C#N)c3ccccc3OC2c2ccccc2O)cc1 (stereo not drawn) = 18.6
• CCOC(=O)c1ccc(NCc2ccc3oc(=O)c(-c4ccccc4)nc3c2)cc1 = -12.8
• CCc1nc(N)nc(N)c1-c1ccc(Cl)c(N=CN(C)C)c1 = 26.9
• COC(=O)NC1C(=O)CCC(=O)C1C(N)=O (stereo not drawn) = -17.4
• COc1ccc(C2CC(=O)NC2=O)cc1OC (stereo not drawn) = -6.55
• [N-]=[N+]=Nc1ccccc1-c1ccccc1[N+](=O)[O-] = 40.3
• O=c1[nH]cnc2sc3c(c12)CCC3 = 14.2
• OCC1NCC(O)C(O)C1O (stereo not drawn) = -14.4
• O=S(NOCc1ccccc1)c1ccccc1 (stereo not drawn) = 3.95
• CC1CCC(OC(=O)Cc2ccccc2)CC1 (stereo not drawn) = 9.55
• COCCNC(C)=O = 12
• [N-]=[N+]=Nc1ccc(S(=O)(=O)Oc2cc(OS(=O)(=O)c3ccc(N=[N+]=[N-])cc3)cc(OS(=O)(=O)c3ccc(N=[N+]=[N-])cc3)c2)cc1 = 10.6
• CC1(C)Cc2ccccc2C(C)(Cl)C(=O)N1 (stereo not drawn) = 6.4
• CCCCCCCCCCC1OCC(C)(C)CO1 = 17.4
• CCc1cc2c(O)c(c1)Cc1cc(CC)cc(c1O)Cc1cc(CC)cc(c1O)Cc1cc(CC)cc(c1O)Cc1cc(CC)cc(c1O)Cc1cc(CC)cc(c1O)Cc1cc(CC)cc(c1O)C2 = 19.8
• Cc1ccc(Cl)cc1NC(=O)Oc1ccc(Cl)cc1C = -7.8
• COc1cc(-c2cc(=O)c3c(O)c(OC)c(OC)cc3o2)ccc1O = -28.5
• Nc1ccc(C2SCC(=O)N2NS(=O)(=O)c2cccc(C(=O)O)c2)cc1 (stereo not drawn) = 6.8
• Cc1cc2c3c(c1)CCCN3CCC2 = -9.85
• COC(=O)C1C(O)CCC2CN3CCc4c([nH]c5cccc(OC)c45)C3CC21 (stereo not drawn) = 14.3
• CC(C)(C)CC(C)(C)N1CNC(=S)NC1 = 18.3
• CCC(C)NC(=O)c1ccccc1C (stereo not drawn) = -3.2
• CNN=C(C)C = -3.4
• CCCCCCCCOc1ccc(Cl)cc1 = -5.35
• CCOC(=O)/C(=C\c1ccccc1)NC(=O)c1ccccc1 = -2.35
• OC12c3ccccc3C1CCCCCCCCCC21OCCO1 (stereo not drawn) = -40.6
• O=C1OCC2CC1C(=O)O2 (stereo not drawn) = 5.95
• COc1ccc(-n2[nH]c3c(cnc4ccccc43)c2=O)cc1 = -33
• Oc1ccc2ccccc2c1C(c1ccccc1)N1CCOCC1 (stereo not drawn) = -5.9
• O=c1[nH]c2ccccc2nc1/C=C(\O)c1ccc([N+](=O)[O-])cc1 = -21.6
• CC(=O)NC(CCC(=O)OC(C)(C)C)C(=O)NC(CCC(=O)OC(C)(C)C)C(=O)NC(Cc1ccc([N+](=O)[O-])cc1)C(=O)NC(CCCCNC(=O)OC(C)(C)C)C(=O)NC(CCCCNC(=O)OC(C)(C)C)C(=O)NCC(=O)O (stereo not drawn) (Ac-E(OtBu)E(OtBu)[Phe(4-NO2)]K(Boc)K(Boc)G-OH; configuration not given here) = -22.6
